target-entity: D(2) dopamine receptor (Homo sapiens) (UniProt P14416)
Sequence (P14416 whole entry): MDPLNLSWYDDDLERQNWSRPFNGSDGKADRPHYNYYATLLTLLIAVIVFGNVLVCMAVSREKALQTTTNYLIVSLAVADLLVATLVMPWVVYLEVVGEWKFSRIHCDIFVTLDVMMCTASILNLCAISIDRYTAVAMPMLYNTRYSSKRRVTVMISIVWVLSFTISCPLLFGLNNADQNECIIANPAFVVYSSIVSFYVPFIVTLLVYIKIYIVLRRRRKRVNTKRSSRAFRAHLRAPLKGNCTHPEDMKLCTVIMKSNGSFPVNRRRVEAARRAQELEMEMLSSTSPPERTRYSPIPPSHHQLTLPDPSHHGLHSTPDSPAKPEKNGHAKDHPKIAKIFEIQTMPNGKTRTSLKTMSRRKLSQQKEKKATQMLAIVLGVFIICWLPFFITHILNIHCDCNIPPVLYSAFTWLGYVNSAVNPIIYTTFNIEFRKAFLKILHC
test-method-notes: Negative allosteric modulation of human D2LR expressed in Flp-In-CHO cells assessed as inhibition of dopamine-indued ERK1/2 phosphorylation preincubated for 30 mins followed by dopamine addition and measured after 5 mins by AlphaScreen assay
Type: cell-based
metric-name: pKb

Observe how each entry below is paired with its result.
{"test-smiles": "N#Cc1ccc2c(c1)CN(CC[C@H]1CC[C@H](NC(=O)c3cc4c(F)cccc4[nH]3)CC1)CC2", "pKb": 7.33}
{"test-smiles": "N#Cc1ccc2c(c1)CN(CC[C@H]1CC[C@H](NC(=O)c3cnn4ccccc34)CC1)CC2", "pKb": 7.39}
{"test-smiles": "N#Cc1ccc2c(c1)CN(CC[C@H]1CC[C@H](NC(=O)c3c[nH]c4ccccc34)CC1)CC2", "pKb": 7.2}
{"test-smiles": "N#Cc1ccc2c(c1)CN(CC[C@H]1CC[C@H](NC(=O)c3c[nH]c4cnccc34)CC1)CC2", "pKb": 8}
{"test-smiles": "N#Cc1ccc2c(c1)CN(CC[C@H]1CC[C@H](NC(=O)c3cc4sccc4[nH]3)CC1)CC2", "pKb": 7.06}

(A) N#Cc1ccc2c(c1)CN(CC[C@H]1CC[C@H](NC(=O)c3cc4ccc(F)cc4[nH]3)CC1)CC2
(B) N#Cc1ccc2c(c1)CN(CC[C@H]1CC[C@H](NC(=O)c3c[nH]c4cccnc34)CC1)CC2
Ask | Could you tell me which of A and B has the lower pKb reading? Selection: enter the item's label.
Reply | A
